biological target: GAS41 YEATS domain (amino acids 15–159) (human, UniProt O95619 15-159); experiment: ITC
Sequence (O95619 15-159): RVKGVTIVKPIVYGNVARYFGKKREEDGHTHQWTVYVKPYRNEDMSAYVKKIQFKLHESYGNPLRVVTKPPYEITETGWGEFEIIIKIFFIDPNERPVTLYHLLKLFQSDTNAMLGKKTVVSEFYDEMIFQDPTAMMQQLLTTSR
pKd: −log10 of the molar value. Where no end group is shown, it is not given here.

| BINDER | pKd |
| --- | --- |
| ARTKQTARKSTGGK(Ac)A (peptide, UniProt P68431 2-16, looked up) [H3_(1–15)K14ac peptide] | 4.89 |

Source: paper PMC5828395
